Target: Progesterone receptor (Homo sapiens)
Sequence (P06401 whole entry): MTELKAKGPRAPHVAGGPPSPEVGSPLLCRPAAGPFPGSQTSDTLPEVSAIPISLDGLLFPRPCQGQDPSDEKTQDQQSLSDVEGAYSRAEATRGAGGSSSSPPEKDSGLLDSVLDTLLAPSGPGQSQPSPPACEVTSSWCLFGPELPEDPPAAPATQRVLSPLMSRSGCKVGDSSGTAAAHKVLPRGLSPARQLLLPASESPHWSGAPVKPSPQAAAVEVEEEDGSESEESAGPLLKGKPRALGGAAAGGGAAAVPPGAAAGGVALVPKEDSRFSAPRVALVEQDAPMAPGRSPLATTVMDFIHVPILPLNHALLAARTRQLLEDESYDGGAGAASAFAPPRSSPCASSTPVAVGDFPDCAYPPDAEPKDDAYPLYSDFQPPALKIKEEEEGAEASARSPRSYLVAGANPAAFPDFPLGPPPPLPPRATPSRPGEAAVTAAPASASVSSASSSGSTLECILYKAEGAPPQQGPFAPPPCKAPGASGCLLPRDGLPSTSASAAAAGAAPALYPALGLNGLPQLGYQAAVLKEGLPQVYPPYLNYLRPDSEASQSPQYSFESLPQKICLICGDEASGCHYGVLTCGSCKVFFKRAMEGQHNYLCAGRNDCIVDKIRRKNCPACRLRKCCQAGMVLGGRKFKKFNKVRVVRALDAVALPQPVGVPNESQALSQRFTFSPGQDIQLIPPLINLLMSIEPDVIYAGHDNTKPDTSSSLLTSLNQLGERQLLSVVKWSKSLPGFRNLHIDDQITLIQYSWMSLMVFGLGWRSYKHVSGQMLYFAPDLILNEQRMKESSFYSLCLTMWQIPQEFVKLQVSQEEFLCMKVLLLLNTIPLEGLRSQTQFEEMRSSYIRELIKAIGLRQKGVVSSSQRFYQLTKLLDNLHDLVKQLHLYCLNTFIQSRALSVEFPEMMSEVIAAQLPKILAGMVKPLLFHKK
Experiment: Antagonist activity at PR in human T47D cells assessed as inhibition of progesterone-induced alkaline phosphatase activity measured after 24 hrs
Format: cell-based
pIC50: −log10 of the molar value.
So basically: pIC50 at 7 or higher? That is yes. Lower than 7? That is no.

# Given smiles, Label
measured = [
    ("Cc1cc(C(O)(C(F)(F)F)C(F)(F)F)cc2c3ccccc3c(=O)n(C)c12", "no"),
    ("CCCCn1c(=O)c2cc(OC)ccc2c2cc(C(O)(C(F)(F)F)C(F)(F)F)ccc21", "no"),
    ("CCCCn1c(=O)c2ccccc2c2cc(C(O)(C(F)(F)F)C(F)(F)F)cc(OC)c21", "no"),
    ("O=c1[nH]c2ccc(C(O)(C(F)(F)F)C(F)(F)F)cc2c2cccc(F)c12", "no"),
    ("CCCCn1c(=O)c2ccccc2c2cc(CC)ccc21", "no"),
]

Input line: Does the reported pIC50 for Cc1cc(C(O)(C(F)(F)F)C(F)(F)F)cc2c3ccc(F)cc3c(=O)n(C)c12 fall at or above the 7 mark?
Output line: yes
